- ASSAYED_SYSTEM: PIK3CA (human)
Some compounds, each annotated with its measured IC50.

These solved cases illustrate the format of a correct answer.
{"CPD_SMILES": "COc1c(OCCN(C)C)ccc2c(N3CCOc4ccc(-c5ccc6nc(C)[nH]c6c5)cc4C3)ncnc12", "ASSAYED_SYSTEM": "PIK3CA (human)", "IC50": "250 to 1000 nM"}
{"CPD_SMILES": "CN(C)S(=O)(=O)c1cc(-c2ccc3c(c2)CN(c2ncnc4c2CC(C)(C)CC4)CCO3)cnc1N", "ASSAYED_SYSTEM": "PIK3CA (human)", "IC50": "10 to 50 nM"}
{"CPD_SMILES": "c1ccc2c(N3CCOc4ccc(-c5ccc6nccnc6c5)cc4C3)ccnc2c1", "ASSAYED_SYSTEM": "PIK3CA (human)", "IC50": "50 to 250 nM"}
{"CPD_SMILES": "Cc1nc2ccc(-c3ccc4c(c3)CN(c3ccnc5ccccc35)CCO4)cc2[nH]1", "ASSAYED_SYSTEM": "PIK3CA (human)", "IC50": "10 to 50 nM"}
{"CPD_SMILES": "c1ccc2c(N3CCOc4ccc(-c5ccc6scnc6c5)cc4C3)ccnc2c1", "ASSAYED_SYSTEM": "PIK3CA (human)", "IC50": "250 to 1000 nM"}
{"CPD_SMILES": "CC1(C)CCc2ncnc(N3CCOc4ccc(-c5cnc(N)c(S(=O)(=O)N6CC(N)C6)c5)cc4C3)c2C1", "ASSAYED_SYSTEM": "PIK3CA (human)", "IC50": "10 to 50 nM"}
{"CPD_SMILES": "CC1(C)CCc2ncnc(N3CCOc4ccc(-c5cnc6[nH]c(C(F)F)nc6c5)cc4C3)c2C1", "ASSAYED_SYSTEM": "PIK3CA (human)", "IC50": "50 to 250 nM"}
{"CPD_SMILES": "Cc1nc2ccc(-c3ccc4c(c3)CN(c3ncnc5ccc(S(C)(=O)=O)cc35)CCO4)cc2[nH]1", "ASSAYED_SYSTEM": "PIK3CA (human)", "IC50": "250 to 1000 nM"}

// below: IC50 requested for another compound
Prompt line: Value wanted: IC50 (PIK3CA (human)) of entry COC(=O)Nc1nc2ccc(-c3ccc4c(c3)CN(c3ncnc5c3CC(C)(C)CC5)CCO4)cc2[nH]1
Response line: 10 to 50 nM

====

Documented pIC50 across a set of molecules
- ASSAYED_SYSTEM: PIK3CA (human) (UniProt P42336)
- Sequence (P42336 whole entry, looked up): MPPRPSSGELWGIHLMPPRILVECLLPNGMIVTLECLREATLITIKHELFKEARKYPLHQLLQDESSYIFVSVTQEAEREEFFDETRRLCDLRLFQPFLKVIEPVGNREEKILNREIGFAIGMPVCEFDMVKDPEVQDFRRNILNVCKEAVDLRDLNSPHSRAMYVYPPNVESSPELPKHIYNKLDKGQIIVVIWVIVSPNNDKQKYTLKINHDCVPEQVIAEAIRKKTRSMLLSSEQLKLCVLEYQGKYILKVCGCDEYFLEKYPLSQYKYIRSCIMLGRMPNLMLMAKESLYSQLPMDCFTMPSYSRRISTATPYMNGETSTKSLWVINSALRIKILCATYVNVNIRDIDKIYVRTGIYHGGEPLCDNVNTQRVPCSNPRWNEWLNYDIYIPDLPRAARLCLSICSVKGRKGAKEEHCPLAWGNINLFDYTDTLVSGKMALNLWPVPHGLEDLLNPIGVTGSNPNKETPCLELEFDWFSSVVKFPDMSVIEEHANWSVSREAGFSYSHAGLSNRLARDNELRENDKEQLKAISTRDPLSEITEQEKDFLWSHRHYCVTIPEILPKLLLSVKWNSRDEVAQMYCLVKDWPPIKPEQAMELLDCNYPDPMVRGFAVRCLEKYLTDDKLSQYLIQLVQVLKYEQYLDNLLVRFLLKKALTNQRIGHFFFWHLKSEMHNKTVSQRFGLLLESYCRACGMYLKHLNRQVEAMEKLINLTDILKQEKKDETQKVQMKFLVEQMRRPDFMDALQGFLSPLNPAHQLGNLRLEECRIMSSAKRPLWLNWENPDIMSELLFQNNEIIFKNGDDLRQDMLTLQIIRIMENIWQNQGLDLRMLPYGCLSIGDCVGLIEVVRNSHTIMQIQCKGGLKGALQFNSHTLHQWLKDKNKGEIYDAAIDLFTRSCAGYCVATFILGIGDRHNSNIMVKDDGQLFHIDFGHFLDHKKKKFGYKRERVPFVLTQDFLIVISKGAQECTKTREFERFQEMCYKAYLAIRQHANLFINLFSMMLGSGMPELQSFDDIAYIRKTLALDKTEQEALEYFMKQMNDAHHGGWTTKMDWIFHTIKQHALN
pIC50: −log10 of the molar value.

{"CPD_SMILES": "Cc1nc2ncc(-c3ccc4c(c3)CN(c3nc(CNC5CCC5)nc5c3CC(C)(C)CC5)CCO4)cc2[nH]1", "ASSAY_READOUT": "pIC50", "VALUE": "7.30 to 8.00"}
{"CPD_SMILES": "CC1(C)CCc2ncnc(N3CCOc4ccc(-c5cnc(C(N)=O)c(N)c5)cc4C3)c2C1", "ASSAY_READOUT": "pIC50", "VALUE": "6.00 to 6.60"}
{"CPD_SMILES": "COc1cc2ncnc(N3CCOc4ccc(-c5ccc6nc(C)[nH]c6c5)cc4C3)c2cc1Cl", "ASSAY_READOUT": "pIC50", "VALUE": "7.30 to 8.00"}
{"CPD_SMILES": "Cc1nc2ccc(-c3ccc4c(c3)CN(c3ncnc(C)c3Cc3ccccc3)CCO4)cc2[nH]1", "ASSAY_READOUT": "pIC50", "VALUE": "7.30 to 8.00"}
{"CPD_SMILES": "CC[C@@H](C)NCc1nc2c(c(N3CCOc4ccc(-c5cnc6nc(C)[nH]c6c5)cc4C3)n1)CC(C)(C)CC2", "ASSAY_READOUT": "pIC50", "VALUE": "7.30 to 8.00"}
{"CPD_SMILES": "Cc1nc2ccc(-c3ccc4c(c3)CN(c3ccnc(C)c3Cc3cccc(F)c3)CCO4)cc2[nH]1", "ASSAY_READOUT": "pIC50", "VALUE": "≥ 8.00"}
{"CPD_SMILES": "Cc1nc2ncc(-c3ccc4c(c3)CN(c3nc(CN(C)C)nc5ccc(F)cc35)CCO4)cc2[nH]1", "ASSAY_READOUT": "pIC50", "VALUE": "7.30 to 8.00"}

Now turn to the next molecule.
Prompt line: Record lookup: for PIK3CA (human) (UniProt P42336), what pIC50 belongs to Cc1nc2ncc(-c3ccc4c(c3)CN(c3ncnc5c3CC(F)(F)CC5)CCO4)cc2[nH]1 ?
Response line: 6.00 to 6.60

====

pIC50: −log10 of the molar value.
Assay read-out pIC50; system under study: PIK3CA (human) (UniProt P42336).

Please review the entries below; each comes with its answer.
{"COMPOUND": "CCc1ncnc(N2CCOc3ccc(-c4cnc5nc(C)[nH]c5c4)cc3C2)c1C", "VALUE": "6.60 to 7.30"}
{"COMPOUND": "Cc1nc2ncc(-c3ccc4c(c3)CN(c3ncnc5c3CCCC5(C)C)CCO4)cc2[nH]1", "VALUE": "6.60 to 7.30"}
{"COMPOUND": "Cc1nc2cc(-c3ccc4c(c3)CN(c3nc(C(C)N5CCCC5)nc5c3CC(C)(C)CC5)CCO4)cnc2[nH]1 (centres undefined)", "VALUE": "6.60 to 7.30"}
{"COMPOUND": "CN1CCC(CNS(=O)(=O)c2cc(-c3ccc4c(c3)CN(c3ncnc5c3CC(C)(C)CC5)CCO4)cnc2N)CC1", "VALUE": "7.30 to 8.00"}
{"COMPOUND": "CC(=O)OCc1nc(C)c(C(C)C)c(N2CCOc3ccc(-c4ccc5nc(C)[nH]c5c4)cc3C2)n1", "VALUE": "6.60 to 7.30"}

Prompt line: # query: pIC50 | item Cc1nc2ccc(-c3ccc4c(c3)CN(c3ncnc(C)c3Cc3cc(F)cc(Cl)c3)CCO4)cc2[nH]1 | system: PIK3CA (human) (UniProt P42336)
Response line: 7.30 to 8.00

Prompt line: Recall the recorded pIC50 for CNS(=O)(=O)c1cc(-c2ccc3c(c2)CN(c2ncnc4c2CC(C)(C)CC4)CCO3)cnc1N with PIK3CA (human) (UniProt P42336) and state it.
Response line: ≥ 8.00

Prompt line: // fetch PIK3CA (human) (UniProt P42336) pIC50 for COc1ccc2c(N3CCOc4ccc(-c5cnc6sc(NC(C)=O)nc6c5)cc4C3)nc(CN(C)C)nc2c1
Response line: 7.30 to 8.00

Prompt line: What measured pIC50 is associated with CCNc1nc(N2CCOc3ccc(-c4ccc5nc(NCC)[nH]c5c4)cc3C2)c2ccccc2n1 on PIK3CA (human) (UniProt P42336)?
Response line: 6.60 to 7.30

====

IC50 tested on PIK3CA (human): recorded values

Use the examples below as a reference point.
{"COMPOUND": "Cc1nc2ncc(-c3ccc4c(c3)CN(c3ncnc5c3CC[C@@H](C)C5)CCO4)cc2[nH]1", "IC50": "50 to 250 nM"}
{"COMPOUND": "Cc1nc(CN(C)C)nc(N2CCOc3ccc(-c4cnc5sc(N)nc5c4)cc3C2)c1C(C)C", "IC50": "≤ 10 nM"}
{"COMPOUND": "Cc1nc2ccc(-c3ccc4c(c3)CN(c3ncnc5cc(Cl)c(Br)cc35)CCO4)cc2[nH]1", "IC50": "250 to 1000 nM"}
{"COMPOUND": "CC1(C)CCc2ncnc(N3CCOc4ccc(-c5cnc(N)c(S(=O)(=O)N6CC(O)C6)c5)cc4C3)c2C1", "IC50": "≤ 10 nM"}
{"COMPOUND": "Cc1nc2c(F)c(-c3ccc4c(c3)CN(c3nc(CN(C)C)nc5c3CC(C)(C)CC5)CCO4)ccc2[nH]1", "IC50": "10 to 50 nM"}
{"COMPOUND": "CC1(C)C=Cc2ncnc(N3CCOc4ccc(-c5cnc6nc(C7CC7)[nH]c6c5)cc4C3)c2C1", "IC50": "10 to 50 nM"}
{"COMPOUND": "Nc1nc2ncc(-c3ccc4c(c3)CN(c3ncnc5ccc(Br)cc35)CCO4)cc2[nH]1", "IC50": "≤ 10 nM"}
{"COMPOUND": "CC[C@H]1CCc2c(ncnc2N2CCOc3ccc(-c4cnc5nc([C@H](C)N)[nH]c5c4)cc3C2)C1", "IC50": "50 to 250 nM"}
{"COMPOUND": "CSc1nc2c(c(N3CCOc4ccc(-c5ccc6nc(C)[nH]c6c5)cc4C3)n1)CCC2", "IC50": "250 to 1000 nM"}
{"COMPOUND": "Cc1nc2ccc(-c3ccc4c(c3)CN(c3ncnc5c3CCN(Cc3ccccc3)C5)CCO4)cc2[nH]1", "IC50": "250 to 1000 nM"}

Prompt line: Item under review: COc1ccc2c(N3CCOc4ccc(-c5ccc(NC(C)=O)cc5)cc4C3)nc(C)nc2c1 . Reported IC50?
Response line: 250 to 1000 nM

Prompt line: Look up IC50: Cc1ncnc(N2CCOc3ccc(-c4ccc5nc(N)sc5n4)cc3C2)c1Cc1ccc(F)cc1
Response line: 50 to 250 nM
